# tested target: Munc13-1 WT C1 domain (Rattus norvegicus, UniProt Q62768)
# assay comment: In vitro [^3H]PDBu binding assay, GST-tagged C1 domain
# experimental parameters: Lipid 100:0 PS:PC, 100 μg/mL lipid, 0.1 mM Ca2+
property: pKd
Give bare numbers, as −log10 of the molar value.

compound: CCCC(=O)O[C@@H]1[C@@H](C)[C@@]2(O)[C@@H](C=C(CO)C[C@]3(O)C(=O)C(C)=C[C@@H]23)[C@@H]2C(C)(C)[C@]12OC(=O)CCC [[^3H]PDBu, [20-^3H]Phorbol 12,13-dibutyrate]
property: pKd
reported measurement: 7.01

Continue with the compound presented below.
Query: Which value of pKd has been reported for CCCCCCCCCCCCCC(=O)O[C@@H]1[C@@H](C)[C@@]2(O)[C@@H](C=C(CO)C[C@]3(O)C(=O)C(C)=C[C@@H]23)[C@@H]2C(C)(C)[C@]12OC(C)=O in the records?
Response: 7.01
